# Tested on: Plasmodium falciparum Sir2 (PF13_0152, Sir2A)
# measurementProtocol: pfSir2 binders on small-molecule microarrays, primary screen, biochemical, small-molecule microarray, 635 nm fluorescence (AID 1098);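 also: score merges spot fluorescence intensity with its signal-to-noise ratio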
# conditionSet: small-molecule microarray binding, fluorescence 635 nm; higher = more signal
Where composite z-score equals or exceeds 1, the correct label is 1.0; where it does not, the label is 0.0.

Query :: Has COc1ccc(CCNC(=O)[C@@]2(Sc3ccc(C)cc3)CC(=O)N(Cc3cc(C(F)(F)F)cc(C(F)(F)F)c3)[C@@H]2c2ccc(CO)cc2I)cc1 a recorded composite z-score greater than or equal to 1?
Result :: 1.0

Query :: Has COC(=O)[C@@]1(Cc2ccccc2)[C@H]2c3cc(C(=O)N4CCCC4)n(Cc4cc(F)cc5c4OCOC5)c3C[C@H]2CN1C(=O)c1ccccc1 a recorded composite z-score greater than or equal to 1?
Result :: 1.0

Query :: Has COC(=O)[C@@]1(Cc2ccc(F)cc2)[C@H]2c3cc(C(=O)N4CCCC4)n(CCc4c[nH]c5ccc(OC)cc45)c3C[C@H]2CN1C(=O)c1ccccc1 a recorded composite z-score greater than or equal to 1?
Result :: 1.0

Query :: Has COc1ccc([Si](C)(C)[C@@H]2[C@@H](CCO)O[C@]3(C(=O)N(Cc4cccc(N5C(=O)c6ccccc6Oc6ccccc65)c4)c4ccccc43)[C@H]2C)cc1 a recorded composite z-score greater than or equal to 1?
Result :: 0.0

Query :: Has CCCCN1CC=CC23O[C@@H]4C=CCOC(=O)[C@@H]4[C@H]2C(=O)N(C(C)CO)[C@@H]3C1=O (some centres not stated) a recorded composite z-score greater than or equal to 1?
Result :: 1.0

Query :: Has O=C(N1CCCCC1)[C@@]1(Cc2ccccc2)COC(c2ccc(OCCCO)cc2)=N1 a recorded composite z-score greater than or equal to 1?
Result :: 1.0

Query :: Has COc1cc(OC)c(C(O)C2C=CC3C(=O)N(c4ccccc4)C(=O)C3N2Nc2ccc(C#N)cc2)cc1Br (configuration not stated) a recorded composite z-score greater than or equal to 1?
Result :: 0.0
